Origin of measurements: PubChem BioAssay (NCI)

Test system: SK-MEL-5 melanoma
assay.text: NCI tumour cell line growth inhibition, 48 h
Short version: TGI at least 10 µM is 1 (yes), less is 0 (no).

| compound | tested.target | label.value |
| --- | --- | --- |
| O=C1NC(O)c2ccccc2O1 (stereo not given) | SK-MEL-5 melanoma | 1 (yes) |
| COc1cc(N)c2[nH]c3c(C)ccc(C)c3c2c1 | SK-MEL-5 melanoma | 1 (yes) |
| CC(CN(C)C)S(=O)(=O)c1ccc(-c2cnc(N)c(C(=O)Nc3ccccc3)n2)cc1 (stereo not given) | SK-MEL-5 melanoma | 1 (yes) |
| Cc1ccc2[nH]c3c(c2c1)N=c1ccccc1=NO3 | SK-MEL-5 melanoma | 1 (yes) |
| C#CCN(N=O)C(=O)NCCCCC(NC(=O)OCc1ccccc1)C(=O)OCc1ccccc1 (stereo not given) | SK-MEL-5 melanoma | 1 (yes) |

*Q* Decide: TGI of O=c1cc(-c2ccccc2)oc2ccc(OC/C(=N/O)c3ccc(F)cc3)cc12 >= 10 µM?
*A* 0 (no)

*Q* Please tell me: is the compound O=C1C(C(c2ccc([N+](=O)[O-])cc2)N2CCOCC2)=C(O)C(c2ccccc2)N1c1ccccc1 (stereo not given) at or over 10 µM in terms of TGI?
*A* 1 (yes)

* * *

Test system: RXF 393 renal
assay.text: NCI tumour cell line growth inhibition, 48 h; in the data active means GI50 below about 0.43 µM; inactive means the rest
Answer with one of the outcomes given here: active, inactive

Look over these answered cases.
| compound | label.value |
| --- | --- |
| O=C(O)/C=C/c1ccc[c]([Sb](=[O])([OH])[OH])c1 | inactive |
| COc1cccc(Sc2ccc([N+](=O)[O-])c3no[n+]([O-])c23)c1 | inactive |
| O=P(O)(O)OCC1OC(n2cnc3c(NCc4ccco4)ncnc32)C(O)C1O (configuration not stated) | inactive |
| CCCCCCCN(CCCCCCC)C(=N)c1ccnc2ccccc12 | inactive |

*Q* Give the logged outcome of this assay for the following compound: Cc1ccc2[nH]c3c(c2c1)N=c1ccccc1=NO3
*A* inactive

*Q* Each compound tested received a call. Report the one for O=C1/C(=C/c2ccc(F)c(F)c2)CN(C(=O)C(Cl)Cl)C/C1=C\c1ccc(F)c(F)c1 .
*A* active

*Q* What outcome does the record of this test show for COc1ccc(-c2nsc3c2NC(=O)CC3c2ccc3c(c2)OCCO3)cc1 (configuration not stated) ?
*A* inactive

* * *

Tested on: SK-MEL-2 melanoma
assay.text: NCI tumour cell line growth inhibition, 48 h; in the data active = GI50 below about 0.43 µM; inactive = the rest
# output must be one of active, inactive

| query.smiles | label.value |
| --- | --- |
| COc1cc2c3c(n(CCCCNC(=O)OC(C)(C)C)c(=O)c2cc1OC)-c1cc2c(cc1C3=O)OCO2 | inactive |

*Q* Recorded call for CCCCC[C@H]1CC=C2C(=O)C=C[C@@H]2CC=CCCCC(=O)O[C@@H](CCCCC)CC=C2C(=O)C=C[C@@H]2CC=CCCCC(=O)O[C@@H](CCCCC)CC=C2C(=O)C=C[C@@H]2CC=CCCCC(=O)O1 ?
*A* active

*Q* Please share the test call associated with COc1cccc(OC(=O)c2ccc(C(F)(F)F)nc2Nc2c(C)cccc2Cl)c1 .
*A* inactive

*Q* Hey, what did the test say about Cc1cc(C(=O)Nc2cc(Oc3ccc4nc(NC(=O)C5CC5)cn4n3)ccc2C)n(C)n1 ?
*A* inactive

*Q* Recorded call for CCC#CC[C@H](O)C/C=C1/C(=O)C=C[C@@H]1C/C=C\CCCC(=O)OC ?
*A* inactive

*Q* Entry C=C(C)[C@@H]1CC[C@]2(COCCCNCCCN)CC[C@]3(C)[C@H](CC[C@@H]4[C@@]5(C)CC[C@H](OCCCN)C(C)(C)[C@@H]5CC[C@]43C)[C@@H]12 : call = ?
*A* inactive
